- target entity: HDAC6 (Homo sapiens, UniProt Q9UBN7)
- Sequence (Q9UBN7 whole entry, species assumed): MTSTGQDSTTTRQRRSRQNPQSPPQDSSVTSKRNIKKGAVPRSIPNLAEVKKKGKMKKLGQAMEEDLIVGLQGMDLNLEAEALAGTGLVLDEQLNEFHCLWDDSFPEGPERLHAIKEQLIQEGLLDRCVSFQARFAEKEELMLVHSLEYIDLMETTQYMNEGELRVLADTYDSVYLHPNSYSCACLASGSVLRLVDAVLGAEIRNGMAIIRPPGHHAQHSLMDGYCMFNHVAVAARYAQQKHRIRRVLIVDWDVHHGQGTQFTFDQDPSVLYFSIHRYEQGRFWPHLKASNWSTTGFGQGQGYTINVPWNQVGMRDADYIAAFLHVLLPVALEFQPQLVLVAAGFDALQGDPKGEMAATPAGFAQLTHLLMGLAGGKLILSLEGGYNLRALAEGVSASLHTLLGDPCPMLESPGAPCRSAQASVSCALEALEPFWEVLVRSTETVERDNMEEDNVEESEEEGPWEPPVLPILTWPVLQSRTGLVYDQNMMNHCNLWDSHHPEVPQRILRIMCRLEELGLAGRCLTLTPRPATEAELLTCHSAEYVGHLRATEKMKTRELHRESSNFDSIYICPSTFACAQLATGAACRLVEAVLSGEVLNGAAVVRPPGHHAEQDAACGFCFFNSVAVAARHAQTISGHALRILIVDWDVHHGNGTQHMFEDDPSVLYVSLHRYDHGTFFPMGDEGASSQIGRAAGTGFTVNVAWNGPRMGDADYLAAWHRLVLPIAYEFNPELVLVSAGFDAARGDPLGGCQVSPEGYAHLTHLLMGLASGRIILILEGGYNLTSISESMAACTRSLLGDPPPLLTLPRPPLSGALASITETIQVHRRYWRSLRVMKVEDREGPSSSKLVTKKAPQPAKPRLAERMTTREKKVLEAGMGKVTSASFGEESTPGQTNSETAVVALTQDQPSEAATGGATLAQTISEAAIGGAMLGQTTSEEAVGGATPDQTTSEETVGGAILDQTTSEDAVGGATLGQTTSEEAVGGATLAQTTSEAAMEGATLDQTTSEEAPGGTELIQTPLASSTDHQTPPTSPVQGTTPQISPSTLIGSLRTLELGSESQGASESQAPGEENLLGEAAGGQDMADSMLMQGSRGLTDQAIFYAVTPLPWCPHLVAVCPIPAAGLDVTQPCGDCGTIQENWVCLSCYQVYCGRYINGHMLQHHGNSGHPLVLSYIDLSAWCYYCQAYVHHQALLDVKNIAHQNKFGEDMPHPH
measured metric: IC50

// query Using the record for COc1ncc(-c2nc(N3CCOCC3)nc3c(CN4CCC(CCCC(=O)NO)CC4)cc(F)cc23)cc1NS(=O)(=O)C(F)(F)F [Compound 26] , report its IC50.
// result 0.01 to 0.1 µM

// query Follow-up entry: COc1ncc(-c2nc(N3CCOCC3)nc3c(CN4CCc5cc(C(=O)NO)cc(F)c5C4)cc(F)cc23)cc1NS(C)(=O)=O [Compound 43]
// result 0.1 to 1 µM

// query Follow-up entry: COc1ncc(-c2nc(N3CCOCC3)nc3c(CN4CCC(CCCCC(=O)NO)CC4)cc(F)cc23)cc1NS(C)(=O)=O [Compound 15]
// result 0.1 to 1 µM

// query Follow-up entry: COc1ncc(-c2nc(N3CCOCC3)nc3c(CN4CCN(Cc5ccc(C(=O)NO)cc5)CC4)cc(F)cc23)cc1NS(C)(=O)=O [Compound 10]
// result 0.01 to 0.1 µM

// query Follow-up entry: COc1ncc(-c2nc(N3CCOCC3)nc3c(OC4CCC(c5ccc(C(=O)NO)cc5F)CC4)cc(F)cc23)cc1NS(C)(=O)=O (stereo not drawn) [Compound 41]
// result 0.1 to 1 µM

// query Follow-up entry: COc1ncc(-c2nc(N3CCOCC3)nc3c(CN4CCC(C(C)(C)OCC(=O)NO)CC4)cc(F)cc23)cc1NS(C)(=O)=O [Compound 22]
// result 1 to 10 µM

// query Follow-up entry: COc1ncc(-c2nc(N3CCOCC3)nc3c(CN4CCC(OCCCC(=O)NO)CC4)cc(F)cc23)cc1NS(C)(=O)=O [Compound 13]
// result 0.1 to 1 µM

// query Follow-up entry: COc1ncc(-c2nc(N3CCOCC3)nc3c(O[C@H]4CC[C@H](N5CCC(C(=O)NO)CC5)CC4)cc(F)cc23)cc1NS(C)(=O)=O [Compound 32]
// result 1 to 10 µM

// query Follow-up entry: COc1ncc(-c2nc(N3CCOCC3)nc3c(OC4CCN(c5ccc(C(=O)NO)cc5F)CC4)cc(F)cc23)cc1NS(C)(=O)=O [Compound 31]
// result 0.01 to 0.1 µM

// query Follow-up entry: COc1ncc(-c2nc(N3CCOCC3)nc3c(CN4CCC(OCCC(=O)NO)CC4)cc(F)cc23)cc1NS(C)(=O)=O [Compound 11]
// result 0.1 to 1 µM

// query Follow-up entry: COc1ncc(-c2nc(N3CCOCC3)nc3c(OC4CCN(c5ncc(C(=O)NO)cc5F)CC4)cc(F)cc23)cc1NS(C)(=O)=O [Compound 30]
// result 0.01 to 0.1 µM

// query Follow-up entry: COc1ncc(-c2nc(N3CCOCC3)nc3c(CN4CCC(C(C)(C)O)CC4)cc(F)cc23)cc1NS(C)(=O)=O [YY-20394, reference compound]
// result > 10 µM

// query Follow-up entry: COc1ncc(-c2nc(N3CCOCC3)nc3c(OC4CCN(Cc5ccc(C(=O)NO)cc5F)CC4)cc(F)cc23)cc1NS(C)(=O)=O [Compound 33]
// result 0.01 to 0.1 µM

// query Follow-up entry: COc1ncc(-c2nc(N3CCOCC3)nc3c(OC4CCN(c5cc(C(=O)NO)no5)CC4)cc(F)cc23)cc1NS(C)(=O)=O [Compound 44]
// result 0.01 to 0.1 µM

// query Follow-up entry: COc1ncc(-c2nc(N3CCOCC3)nc3c(CN4CC(OCCOCC(=O)NO)C4)cc(F)cc23)cc1NS(C)(=O)=O [Compound 16]
// result 1 to 10 µM

// query Follow-up entry: COc1ncc(-c2nc(N3CCOCC3)nc3c(OCc4ncc(C(=O)NO)cc4F)cc(F)cc23)cc1NS(C)(=O)=O [Compound 45]
// result 0.01 to 0.1 µM

// query Follow-up entry: COc1ncc(-c2nc(N3CCOCC3)nc3c(CN4CCN(CCCCC(=O)NO)CC4)cc(F)cc23)cc1NS(C)(=O)=O [Compound 6]
// result 0.1 to 1 µM

// query Follow-up entry: COc1ncc(-c2nc(N3CCOCC3)nc3c(CN4CCC(c5cc(F)c(C(=O)NO)cc5F)CC4)cc(F)cc23)cc1NS(C)(=O)=O [Compound 20]
// result 0.1 to 1 µM

// query Follow-up entry: COc1ncc(-c2nc(N3CCOCC3)nc3c(CN4CCN(c5ccc(C(=O)NO)cc5F)CC4)cc(F)cc23)cc1NS(C)(=O)=O [Compound 34]
// result 0.01 to 0.1 µM

// query Follow-up entry: COc1ncc(-c2nc(N3CCOCC3)nc3c(CNc4ccc(C(=O)NO)cc4F)cc(F)cc23)cc1NS(C)(=O)=O [Compound 36]
// result 0.01 to 0.1 µM

// query Follow-up entry: COc1ncc(-c2nc(N3CCOCC3)nc3c(OC4CCN(c5ccc(C(=O)NO)cn5)CC4)cc(F)cc23)cc1NS(C)(=O)=O [Compound 40]
// result 0.01 to 0.1 µM
